# STUDY SYSTEM: human Nav1.8 (Homo sapiens, UniProt Q9Y5Y9)
# Construct: expressed in transfected cells; host or cells: HEK293 (HEK293-Nav1.8)
# Sequence (Q9Y5Y9 whole entry): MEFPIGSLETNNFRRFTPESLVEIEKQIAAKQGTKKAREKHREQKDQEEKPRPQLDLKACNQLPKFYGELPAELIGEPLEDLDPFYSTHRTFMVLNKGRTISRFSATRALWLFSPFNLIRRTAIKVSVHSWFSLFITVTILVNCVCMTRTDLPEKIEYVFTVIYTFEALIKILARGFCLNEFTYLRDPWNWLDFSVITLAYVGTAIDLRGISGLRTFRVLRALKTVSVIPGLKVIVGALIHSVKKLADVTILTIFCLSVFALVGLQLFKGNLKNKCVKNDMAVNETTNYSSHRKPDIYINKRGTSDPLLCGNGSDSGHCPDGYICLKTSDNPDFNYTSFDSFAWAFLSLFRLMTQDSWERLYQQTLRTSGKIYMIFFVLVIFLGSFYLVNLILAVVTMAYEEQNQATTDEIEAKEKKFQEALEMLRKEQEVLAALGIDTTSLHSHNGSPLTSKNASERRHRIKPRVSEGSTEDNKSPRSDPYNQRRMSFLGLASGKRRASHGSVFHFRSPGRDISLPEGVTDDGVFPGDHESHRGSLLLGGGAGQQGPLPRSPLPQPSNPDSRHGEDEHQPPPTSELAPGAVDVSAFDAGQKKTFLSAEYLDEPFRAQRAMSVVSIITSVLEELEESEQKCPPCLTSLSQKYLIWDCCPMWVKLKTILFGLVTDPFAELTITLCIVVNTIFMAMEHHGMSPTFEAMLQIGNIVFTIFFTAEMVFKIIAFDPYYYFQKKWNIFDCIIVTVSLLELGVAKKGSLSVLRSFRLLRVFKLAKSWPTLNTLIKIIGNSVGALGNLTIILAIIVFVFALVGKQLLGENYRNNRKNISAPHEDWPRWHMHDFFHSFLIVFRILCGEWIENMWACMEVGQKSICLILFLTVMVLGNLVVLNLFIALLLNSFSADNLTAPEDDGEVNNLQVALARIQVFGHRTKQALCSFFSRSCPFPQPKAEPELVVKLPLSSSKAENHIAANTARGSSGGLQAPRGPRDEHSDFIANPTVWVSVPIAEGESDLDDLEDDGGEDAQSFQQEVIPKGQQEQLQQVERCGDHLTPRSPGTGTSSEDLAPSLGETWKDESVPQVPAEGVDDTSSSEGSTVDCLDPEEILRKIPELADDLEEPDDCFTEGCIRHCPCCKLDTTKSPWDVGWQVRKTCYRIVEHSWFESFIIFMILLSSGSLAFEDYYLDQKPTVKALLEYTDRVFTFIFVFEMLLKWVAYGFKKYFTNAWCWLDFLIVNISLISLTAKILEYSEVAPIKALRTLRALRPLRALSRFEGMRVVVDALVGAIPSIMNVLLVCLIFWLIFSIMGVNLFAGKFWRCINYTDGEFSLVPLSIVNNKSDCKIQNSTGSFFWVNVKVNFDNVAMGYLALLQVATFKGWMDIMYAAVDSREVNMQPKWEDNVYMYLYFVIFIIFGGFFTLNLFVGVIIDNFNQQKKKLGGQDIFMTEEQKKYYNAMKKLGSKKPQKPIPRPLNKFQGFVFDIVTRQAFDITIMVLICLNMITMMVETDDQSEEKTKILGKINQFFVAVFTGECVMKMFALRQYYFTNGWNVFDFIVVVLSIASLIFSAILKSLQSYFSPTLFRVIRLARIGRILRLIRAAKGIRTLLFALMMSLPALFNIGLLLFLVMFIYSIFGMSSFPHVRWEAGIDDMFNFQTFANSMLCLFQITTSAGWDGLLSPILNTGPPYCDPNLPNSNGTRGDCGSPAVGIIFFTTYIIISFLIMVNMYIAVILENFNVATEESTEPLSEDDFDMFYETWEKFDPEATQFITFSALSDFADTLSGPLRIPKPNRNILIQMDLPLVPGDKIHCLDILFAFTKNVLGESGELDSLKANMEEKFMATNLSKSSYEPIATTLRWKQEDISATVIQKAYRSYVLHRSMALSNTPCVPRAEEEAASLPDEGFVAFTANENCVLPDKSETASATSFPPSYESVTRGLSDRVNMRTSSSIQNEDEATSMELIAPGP
# Sequence (Q07699 19-218 partner): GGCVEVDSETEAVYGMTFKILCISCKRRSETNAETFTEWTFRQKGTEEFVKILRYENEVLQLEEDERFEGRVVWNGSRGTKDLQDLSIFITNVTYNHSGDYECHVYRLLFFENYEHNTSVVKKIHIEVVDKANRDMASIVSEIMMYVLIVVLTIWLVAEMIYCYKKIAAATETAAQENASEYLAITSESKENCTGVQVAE
# ASSAY SUMMARY: Nav1.8 sodium channels assay, QPatch 48 HTX electrophysiology in HEK293-Nav1.8 cells
# Assay type: cell-based
# RECORDED CONDITIONS: at least one set of experimental runs; read-out: average pIC50 value against Nav1.8 (converted)
Entries and their IC50 values follow.

Qu. Given `Cc1cc(O)ccc1N1CN(c2ccc(F)cc2C)c2cc(C(F)(F)F)ccc2C1=O` , respond with its IC50.
Ans. 794 to 7940 nM
